system: mice; assay: Anti-arrhythmic activity in mice (method of Lawson), intraperitoneal injection; format: in vivo; conditions: Mus musculus, ip

# smiles-entry, ED50 (mg/kg)
measured = [
    ("CCN(CC)CC(=O)Nc1cccc(C(C)=O)c1", 180),
    ("CCN(CC)CCC(=O)Nc1c(C)cccc1C(C)=O", 50),
    ("CCN(CC)CC(=O)Nc1c(C)cccc1C(C)=O", 80),
    ("CCN(CC)CC(=O)Nc1ccc(C(C)=O)cc1", 250),
    ("CCCC(=O)c1cccc(C)c1NC(=O)CCN(CC)CC", 25),
    ("CCN(CC)CCC(=O)Nc1cc(C(C)=O)ccc1C", 97),
]

Hello, the source for this data is patent US4032573A, in case you need it.
